assay: ACEA_AR_antagonist_AUC_viability: ACEA Biosciences xCELLigence Real-Time Cell Analysis on Androgen Receptor Antagonism for Viability (AID 2283776);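 further: 22Rv1 human prostate cancer cells growing on impedance electrode plates; area under impedance growth curve at 80 h after dosing as viability; hits lower the growth signal relative to DMSO meaning cytotoxicity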
Results filed as inconclusive are left out. Active and inactive are the calls of the source. How the source made its calls: active means hit-call score of the fitted dose curve at least 0.9, where 1 is the maximum; inconclusive means response in the unintended direction; inactive means score below 0.9.
A correct response names exactly one class from 1 = active, -1 = inactive

Reference set (5 entries):
O=C(O)CCCCCCCC(=O)O
-1
O=c1cc(-c2ccccc2)oc2cc(O)cc(O)c12
-1
O=C1c2ccccc2C(=O)N1SC1CCCCC1
-1
O=C1NC(=O)c2ccccc21
-1
NCCCN1CCOCC1
-1

Query block: Field: outcome | Entry: CCCCC[Si](OCC)(OCC)OCC
Result block: -1

Query block: Name the outcome recorded for OCCOCCOCCOCCO in the assay.
Result block: -1

Query block: How did this test come out for c1ccc2[nH]ccc2c1 ?
Result block: -1

Query block: Called result for CC(C)C[C@H]1C(=O)N2CCC[C@H]2[C@]2(O)O[C@](NC(=O)[C@@H]3C=C4c5cccc6[nH]c(Br)c(c56)C[C@H]4N(C)C3)(C(C)C)C(=O)N12
Result block: -1

Query block: Which outcome did this test record for the compound OCCN1CCNCC1 ?
Result block: -1

Query block: For CCCCCCCCC=O , what call appears in the results of this test?
Result block: -1

Query block: Test call for this compound, please: C=CC[N+](C)(C)CC=C
Result block: -1

Origin of values: PubChem BioAssay (EPA / NIEHS)
